- MEASUREMENT TARGET: Bcl-2-related protein A1 (Mus musculus, UniProt Q07440)
- Sequence (Q07440 whole entry): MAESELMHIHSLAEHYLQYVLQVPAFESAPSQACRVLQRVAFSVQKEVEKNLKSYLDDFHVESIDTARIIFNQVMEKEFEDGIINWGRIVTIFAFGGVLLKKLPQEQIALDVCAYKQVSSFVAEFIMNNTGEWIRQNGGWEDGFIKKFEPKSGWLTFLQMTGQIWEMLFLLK
- PROTOCOL SUMMARY: small-molecule antagonists of Bfl-1/BH3 interaction – biochemical, TR-FRET, mouse Bfl-1, confirmation (AID 621)
OBSERVATION TYPE: IC50 (µM)
Write down the numeric answer in µM and omit the unit.

Sample answers from the record:
>>> print(df.to_string())
                                   molecule  observation_type  reading
0  Oc1c(Cl)c(N=Cc2ccccc2)c(O)n1-c1ccc(Cl)c(Cl)c1 [MLS-0067125.0001]              IC50     73.7
1  COCC=Nc1c(Cl)c(O)n(-c2ccc(Cl)c(Cl)c2)c1O              IC50     4.96

Turning now to a further record.
# lookup: IC50 of O=C1C(=Nc2ccc(F)cc2)C(Cl)C(=O)N1c1ccc(Cl)c(Cl)c1 (stereo unspecified)
96.5

----------
# pIC50 per entry
- MEASUREMENT TARGET: UniProtKB Q07440
- PROTOCOL SUMMARY: small-molecule antagonists of Bfl-1/BH3 interaction – biochemical, TR-FRET, mouse Bfl-1, confirmation (AID 621)
pIC50: −log10 of the molar value.

Take a look at these entries with their results.
>>> df
                                   molecule  measurement_target  observation_type  reading
0  COc1ccc(N2C(=O)C(=Nc3c(C)n(C)n(-c4ccccc4)c3=O)C(Cl)C2=O)cc1 (stereo not drawn)    UniProtKB Q07440             pIC50   < 4.00
1  Cc1ccc(C2C3CN(C(C)C)CCC3=C(C#N)C(=N)C2(C#N)C#N)cc1 (stereo not drawn)    UniProtKB Q07440             pIC50   < 4.00

We now examine a further molecule.
Requested read-out pIC50, target or system UniProtKB Q07440, entry c1ccc(-c2ccc(C3=Nc4ncnn4C(c4ccco4)C3)cc2)cc1 (stereo not drawn)
< 4.00
